B1: Lysine-specific demethylase 2B, residues 656 to 722; numbered along this chain, Q8NHM5 (parent)
chain: LPHTAVCLVCGEAGKEDTVEEEEGKFNLMLMECSICNEIIHPGCLKIKESEGVVNDELPNCWECPKC

# Variants of: B1
# procedure summary: abundance fitness (aPCA) (normalised: wild type 0, dead -1); higher = more abundant; growth selection in yeast, the domain comes from the species named
# study conditions: Homo sapiens
observable: abundance fitness
Please reply with the value in numeric form only.

Can you look up the measured abundance fitness of LPHTAVCLVCGEAGKEDTVEEEEGKFNLMLMECSICNEIIHPGCLKKKESEGVVNDELPNCWECPKC for me?
-0.17

Let us now turn to LPHTAVCLVCIEAGKEDTVEEEEGKFNLMLMECSICNEIIHPGCLKIKESEGVVNDELPNCWECPKC
-0.828

Let us now turn to LPHTAVCLVCGEAGKEDTVEEEECKFNLMLMECSICNEIIHPGCLKIKESEGVVNDELPNCWECPKC
-0.415

Let us now turn to LPHTAVCLVCGEAGKEDTVEEEEGKFNLMLMECSIGNEIIHPGCLKIKESEGVVNDELPNCWECPKC
-0.794

Let us now turn to LPHTAVCLVCGEAGKEDTVEEEEPKFNLMLMECSICNEIIHPGCLKIKESEGVVNDELPNCWECPKC
-0.481

Let us now turn to LPHTAVCLVCGEYGKEDTVEEEEGKFNLMLMECSICNEIIHPGCLKIKESEGVVNDELPNCWECPKC
-0.117
